Tested on: D614G spike-pseudotyped virus
Assay type: cell-based, SARS-CoV-2
IC50 reference
QUANTITY MEASURED: IC50 (µM)

Fc1ccc(CNCCCCN2CCCC3=CC4CC(CN5CCCCC45)C32)cc1 (stereo not drawn) [Compound 9]
0.61
O=C(NCCCCCCCC(=O)N1CCCC2=CC3CC(CN4CCCCC34)C21)c1ccc(OC(F)(F)F)cc1 (stereo not drawn) [Compound 8]
17.5
O=C(Cc1ccc(S(=O)(=O)C(F)(F)F)cc1)NCCCCN1CCCC2=CC3CC(CN4CCCCC34)C21 (stereo not drawn) [Compound 3]
3.8
COc1ccc(C(=O)NCCCCN2CCCC3=CC4CC(CN5CCCCC45)C32)cc1 (stereo not drawn) [Compound 6]
11.9
C1=C2CCCN[C@H]2[C@@H]2C[C@H]1[C@H]1CCCCN1C2 [Aloperine, aloperine, reference compound]
11.5
C1=C2CCCN(CCCCCNCc3ccccc3)C2C2CC1C1CCCCN1C2 (stereo not drawn) [Compound 4]
0.86
CCN(CC)CCCC(C)Nc1ccnc2cc(Cl)ccc12 (stereo not drawn) [Chloroquine diphosphate, reference compound]
2.3
CC(C)(C)c1ccc(C(=O)NCCCCCCN2CCCC3=CC4CC(CN5CCCCC45)C32)cc1 (stereo not drawn) [Compound 7]
3.7
O=C(NCCCCCCN1CCCC2CC3CC(CN4CCCCC34)C21)c1c(F)cc(Br)cc1F (stereo not drawn) [Compound 1]
4.7
